Exercise: state measured CRF1R Emax % for each of the binders provided.
target: corticotropin releasing factor 1 receptor
experimentNotes: cell-based or functional assay
Ends that are not written are not given here.
The reply should consist of the numeric value with the unit placed after it.

- binder: "ZGPPISIDLPFFLLRKVIEIEKQEKEKQQAANNALLLDTI (C-terminal amide) [SEQ ID NO 316]"
  endpointLabel: "CRF1R Emax %"
  valueReported: "92.3%"
- binder: "ZGPPISIDLPYALLRKMIEIEKQEKEKQQAANNRLLLDTI (not fully specified; C-terminal amide) [SEQ ID NO 309]"
  endpointLabel: "CRF1R Emax %"
  valueReported: "96.3%"
- binder: "NDDPPISIDLPFYLLRNMIEMARIENEREQAGLNAKYLAEV-NH2 [SEQ ID NO 261]"
  endpointLabel: "CRF1R Emax %"
  valueReported: "100%"
- binder: "DNPSLSIDLPLFLLRTLLELEKTQSQRERAEQNARIFARV-NH2 [SEQ ID NO 334]"
  endpointLabel: "CRF1R Emax %"
  valueReported: "82.6%"
- binder: "DNPSLSIDLPLLLLRTLLELEKTQSQRERAEQNANIFANV-NH2 [SEQ ID NO 326]"
  endpointLabel: "CRF1R Emax %"
  valueReported: "30.1%"

Okay, now this binder:
Given ZGPPISIDVPYHLLRKVIEIEKQEKEKQQAANNARLLDTI (C-terminal amide) [SEQ ID NO 376] , state its recorded CRF1R Emax %.
8%
